Origin of the recorded values: patent US20250074871A1

Target: 5-HT2C receptor (Homo sapiens)
Construct: expressed in transfected cells; host or cells: HEK293T
Sequence (P28335 33-458): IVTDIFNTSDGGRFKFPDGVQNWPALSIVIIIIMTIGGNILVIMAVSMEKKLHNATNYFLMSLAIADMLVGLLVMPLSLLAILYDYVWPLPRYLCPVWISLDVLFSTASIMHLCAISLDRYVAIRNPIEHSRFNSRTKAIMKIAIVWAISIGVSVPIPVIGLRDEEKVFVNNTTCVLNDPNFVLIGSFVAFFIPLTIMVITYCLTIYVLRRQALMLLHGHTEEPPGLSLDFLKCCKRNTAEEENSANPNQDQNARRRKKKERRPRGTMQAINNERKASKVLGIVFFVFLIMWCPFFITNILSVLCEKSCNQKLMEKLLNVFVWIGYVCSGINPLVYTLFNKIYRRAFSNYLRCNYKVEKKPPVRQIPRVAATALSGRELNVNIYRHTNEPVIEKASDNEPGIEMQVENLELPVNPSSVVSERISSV
Assay: cell-based
Format: cell-based
Conditions: Table 2; normalized to % 5-HT stimulation
assay readout: 5-HT2C BRET Eff % (%)
# value in %; strip the unit string

[ask] Read the entry COc1cc(C#N)ccc1CCNCc1cccs1 and write its reported 5-HT2C BRET Eff %.
[reply] 102

[ask] Read the entry COc1cc(Cc2ccccc2)ccc1CCNCc1ccccc1O and write its reported 5-HT2C BRET Eff %.
[reply] 111

[ask] Read the entry Oc1cc(Cl)ccc1CCNCc1ccccc1O and write its reported 5-HT2C BRET Eff %.
[reply] 103

[ask] Read the entry COc1cc(C#N)ccc1CCNCc1ccc(F)cc1F and write its reported 5-HT2C BRET Eff %.
[reply] 94

[ask] Read the entry COc1cc(C#N)c(F)cc1CCNCc1ccccc1SC and write its reported 5-HT2C BRET Eff %.
[reply] 118

[ask] Read the entry COc1cc(C#N)ccc1CCNCc1ccccc1Cl and write its reported 5-HT2C BRET Eff %.
[reply] 130

[ask] Read the entry COc1cc(C#N)c(F)cc1CCNCc1ccccc1O [Cpd #117] and write its reported 5-HT2C BRET Eff %.
[reply] 115

[ask] Read the entry COc1cc(C#N)ccc1CCNCc1ccccc1SC and write its reported 5-HT2C BRET Eff %.
[reply] 103

[ask] Read the entry CSc1ccccc1CNCCc1ccc(C#N)cc1O and write its reported 5-HT2C BRET Eff %.
[reply] 114

[ask] Read the entry CCCCCc1ccc(CCNCc2ccccc2O)c(OC)c1 and write its reported 5-HT2C BRET Eff %.
[reply] 105

[ask] Read the entry COc1cc(C#N)ccc1CCNCc1ccccc1F and write its reported 5-HT2C BRET Eff %.
[reply] 130

[ask] Read the entry COc1cc(-c2ncco2)ccc1CCNCc1ccccc1Cl and write its reported 5-HT2C BRET Eff %.
[reply] 101
